test system: receptors coupled to Gi proteins expressed on osteoblasts; assay: Cellular Dielectric Spectroscopy (CDS, CELLKEY) response to Gi-coupled receptor ligands in osteoblasts from control and AIS subjects; format: cell-based, human; conditions: osteoblasts of control subjects; 300 μM ligand; from FIGS. 11A-11F
Listed next: entries and their corresponding Absolute dZiec, control value of max diff. (maximal control value).
Endpoint: Absolute dZiec, control value of max diff. (maximal control value)

- Smiles record: "COc1ccc2[nH]c(I)c(CCNC(C)=O)c2c1"
  Assay system: "receptors coupled to Gi proteins expressed on osteoblasts"
  Reported: 159
- Smiles record: "O=C(NC1CCCCC1)c1cn(CCN2CCOCC2)c2cc(Cl)ccc2c1=O"
  Assay system: "receptors coupled to Gi proteins expressed on osteoblasts"
  Reported: 169
- Smiles record: "O=C(O)/C=C\\C(=O)O.c1ccc(N2CCN(CCCOc3ccc4c(c3)OCO4)CC2)cc1"
  Assay system: "receptors coupled to Gi proteins expressed on osteoblasts"
  Reported: 166
- Smiles record: "COc1ccc2[nH]cc(CCNC(C)=O)c2c1"
  Assay system: "receptors coupled to Gi proteins expressed on osteoblasts"
  Reported: 83
- Smiles record: "CNC(=O)[C@H]1O[C@@H](n2cnc3c(NCc4cccc(I)c4)ncnc32)[C@H](O)[C@@H]1O"
  Assay system: "receptors coupled to Gi proteins expressed on osteoblasts"
  Reported: 172
- Smiles record: "Brc1c(NC2=NCCN2)ccc2nccnc12"
  Assay system: "receptors coupled to Gi proteins expressed on osteoblasts"
  Reported: 115

----------
System: receptors coupled to Gi proteins expressed on osteoblasts
Test: Cellular Dielectric Spectroscopy (CDS, CELLKEY) response to Gi-coupled receptor ligands in osteoblasts from control and AIS subjects
Format: cell-based, human
Details: osteoblasts; AIS Group 3 value of min diff.; 300 μM ligand; from FIGS. 11A-11F
Experimental: Bone specimens were obtained intraoperatively from vertebras (varying from T3 to L4 according to the surgical procedure performed), while with trauma cases used as non-scoliotic controls bone specimens were obtained from other anatomical sites (tibia or femur, and in one case from an iliac crest biopsy). […] Pre-addition measurements were made for 5 min to obtain a baseline reading. […]
Endpoint: Absolute dZiec, Group 3, min diff. (group value)

- Smiles record: "COc1ccc2[nH]c(I)c(CCNC(C)=O)c2c1"
  Assay system: "receptors coupled to Gi proteins expressed on osteoblasts"
  Reported: 101
- Smiles record: "CNC(=O)[C@H]1O[C@@H](n2cnc3c(NCc4cccc(I)c4)ncnc32)[C@H](O)[C@@H]1O"
  Assay system: "receptors coupled to Gi proteins expressed on osteoblasts"
  Reported: 115
- Smiles record: "Brc1c(NC2=NCCN2)ccc2nccnc12"
  Assay system: "receptors coupled to Gi proteins expressed on osteoblasts"
  Reported: 71
- Smiles record: "O=C(NC1CCCCC1)c1cn(CCN2CCOCC2)c2cc(Cl)ccc2c1=O"
  Assay system: "receptors coupled to Gi proteins expressed on osteoblasts"
  Reported: 123
- Smiles record: "O=C(O)/C=C\\C(=O)O.c1ccc(N2CCN(CCCOc3ccc4c(c3)OCO4)CC2)cc1"
  Assay system: "receptors coupled to Gi proteins expressed on osteoblasts"
  Reported: 107
- Smiles record: "COc1ccc2[nH]cc(CCNC(C)=O)c2c1"
  Assay system: "receptors coupled to Gi proteins expressed on osteoblasts"
  Reported: 50
